Tested target: T1, Recombinant human IL-18 (human, UniProt Q14116 37-193)
T1 sequence: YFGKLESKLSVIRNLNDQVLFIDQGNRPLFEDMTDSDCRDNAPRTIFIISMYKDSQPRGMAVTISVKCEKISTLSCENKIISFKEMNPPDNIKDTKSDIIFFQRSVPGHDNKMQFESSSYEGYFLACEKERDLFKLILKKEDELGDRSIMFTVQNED
Experimental protocol: cell-based or functional assay
IC50, inhibition of IFN-γ release, PBMC, Hu IL-18 (recombinant) overview
Observed property: IC50, inhibition of IFN-γ release, PBMC, Hu IL-18 (recombinant) (nM)

Binder: MOR10502 (antibody, human IgG1, lambda, L234A L235A, V domains shown, also called MOR010502) VH: EVQLQESGPGLVKPGETLSLTCTVSGGSISTGSYYWNWIRQAPGKGLEWIGEIHGHGFTFYNPSLKSRVTISVDTSKNQFSLKLSSVTAADTAVYYCARTTRYWMSHILAYGMDYWGQGTLVTVSS VL: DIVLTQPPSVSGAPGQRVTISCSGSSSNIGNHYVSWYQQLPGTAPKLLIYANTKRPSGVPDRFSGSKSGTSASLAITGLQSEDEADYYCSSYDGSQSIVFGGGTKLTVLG
Measured result: 6.3
//
Binder: MOR08775 (antibody, human IgG1, lambda, V domains shown, also called MOR8775) VH: QVQLVQSGAEVKKPGSSVKVSCKASGGTFNSYAISWVRQAPGQGLEWMGGIIPIYGTANYAQKFQGRVTITADESTSTAYMELSSLRSEDTAVYYCARAAYHPLVFDNWGQGTLVTVSS VL: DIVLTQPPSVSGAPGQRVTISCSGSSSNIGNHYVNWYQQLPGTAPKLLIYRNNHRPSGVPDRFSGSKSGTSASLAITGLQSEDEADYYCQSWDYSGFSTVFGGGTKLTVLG
Measured result: 9.2
//
Binder: MOR10497 (antibody, human IgG1, lambda, L234A L235A, V domains shown, also called MOR010497) VH: EVQLQESGPGLVKPGETLSLTCTVSGGSISTGSYYWNWIRQAPGKGLEWIGEIQSPGYTFYNPSLKSRVTISVDTSKNQFSLKLSSVTAADTAVYYCARTTRYWMSHILAYGMDYWGQGTLVTVSS VL: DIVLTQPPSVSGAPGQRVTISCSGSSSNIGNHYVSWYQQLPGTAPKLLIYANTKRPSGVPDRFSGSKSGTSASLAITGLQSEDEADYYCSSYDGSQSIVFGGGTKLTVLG
Measured result: 5.8
//
Binder: MOR09464 (antibody, human IgG1, lambda, L234A L235A, V domains shown, also called MOR9464) VH: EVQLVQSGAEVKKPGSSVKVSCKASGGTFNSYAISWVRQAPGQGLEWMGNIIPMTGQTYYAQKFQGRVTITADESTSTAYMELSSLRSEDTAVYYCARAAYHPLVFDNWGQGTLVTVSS VL: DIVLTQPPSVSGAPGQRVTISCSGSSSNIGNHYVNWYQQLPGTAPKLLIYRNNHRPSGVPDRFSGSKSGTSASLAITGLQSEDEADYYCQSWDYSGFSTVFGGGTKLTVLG
Measured result: 1.3
//
Binder: MOR08776 (antibody, human IgG1, lambda, V domains shown, also called MOR8776) VH: QVQLQESGPGLVKPGETLSLTCTVSGGSISTGSYYWNWIRQAPGKGLEWIGEINHMGITYYNPSLKGRVTISVDTSKNQFSLKLSSVTAEDTAVYYCARTTRYWMSHILAYGMDYWGQGTLVTVSS VL: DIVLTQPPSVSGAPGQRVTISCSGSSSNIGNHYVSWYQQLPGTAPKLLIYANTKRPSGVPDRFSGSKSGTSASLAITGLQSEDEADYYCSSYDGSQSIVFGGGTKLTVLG
Measured result: 50.8

Taken from patent US20140112915A1.
